Values from ChEMBL document CHEMBL6074717

# assay_info: Inhibition of mitochondrial pyruvate carrier in C57BL/6J mouse cardiac mitochondria assessed as inhibition of pyruvate/malate-induced mitochondrial respiration by steady-state ADP coupled assay
# Parameters: species or system Heart
One threshold, 500 nM, splits the recorded EC50 values: lower ones are 1.0, equal or higher ones are 0.0.

Completed entries (count: 6):
smiles_text	category_label
COc1ccc(-c2n[nH]cc2/C=C(\C#N)C(=O)O)cc1	0.0
N#C/C(=C\c1c[nH]nc1-c1cc2ccccc2s1)C(=O)O	0.0
N#C/C(=C\c1cn(-c2ccccc2)nc1-c1ccc(Cl)c(Cl)c1)C(=O)O	1.0
COc1ccc(-c2n[nH]cc2/C=C(\C#N)C(=O)O)c(F)c1	0.0
N#C/C(=C\c1c[nH]nc1-c1cc(Br)cc(Br)c1)C(=O)O	1.0
N#C/C(=C\c1c[nH]nc1-c1cccc2ccccc12)C(=O)O	1.0

**Q:** Please check: EC50 for `N#C/C(=C\c1c[nH]nc1-c1cc(C(F)(F)F)cc(C(F)(F)F)c1)C(=O)O` , strictly under 500 nM or not?
**A:** 1.0

**Q:** Also `CCn1cc(/C=C(\C#N)C(=O)O)c(-c2ccc(Cl)c(Cl)c2)n1` ?
**A:** 1.0

**Q:** Also `N#C/C(=C\c1c[nH]nc1-c1cccnc1)C(=O)O` ?
**A:** 0.0

###

# pEC50 values compiled below
# assay_info: Inhibition of mitochondrial pyruvate carrier in C57BL/6J mouse cardiac mitochondria assessed as inhibition of pyruvate/malate-induced mitochondrial respiration by steady-state ADP coupled assay
# Parameters: species or system Heart
When answering, recall that pEC50 equals minus log10 of the concentration in mol/L, and write that number alone.

Illustrative cases are given below, each with its answer.
smiles_text	measured_quantity	recorded_number
N#C/C(=C\c1c[nH]nc1-c1ccc2ccccc2c1)C(=O)O	pEC50	6.67
CC(C)(C)OC(=O)/C(C#N)=C/c1c[nH]nc1-c1cccc(C(F)(F)F)c1	pEC50	4.92
N#C/C(=C\c1c[nH]nc1-c1cccc(Br)c1)C(=O)O	pEC50	6.35
N#C/C(=C\c1c[nH]nc1-c1ccc(Cl)cc1Cl)C(=O)O	pEC50	5.97
Cc1ccccc1-c1n[nH]cc1/C=C(\C#N)C(=O)O	pEC50	6.18

**Q:** Recorded pEC50 for `N#C/C(=C\c1c[nH]nc1-c1ccc(Cl)c(Cl)c1)C(=O)O` , please?
**A:** 6.97

**Q:** Also `N#C/C(=C\c1c[nH]nc1-c1ccccc1F)C(=O)O` ?
**A:** 6.10

**Q:** Also `N#C/C(=C\c1cn(-c2ccccc2)nc1-c1cccc2ccccc12)C(=O)O` ?
**A:** 6.15

**Q:** Also `N#C/C(=C\c1c[nH]nc1-c1ccc2c(c1)OCO2)C(=O)O` ?
**A:** 6.36

**Q:** Also `COc1ccc(-c2n[nH]cc2/C=C(\C#N)C(=O)O)cc1F` ?
**A:** 6.25

**Q:** Also `N#C/C(=C\c1c[nH]nc1-c1cccc(C(F)(F)F)c1)C(=O)O` ?
**A:** 6.97

**Q:** Also `CC(C)(C)c1ccc(-c2n[nH]cc2/C=C(\C#N)C(=O)O)cc1` ?
**A:** 6.35

**Q:** Also `COc1ccc(-c2n[nH]cc2/C=C(\C#N)C(=O)O)cc1OC` ?
**A:** 6.09

**Q:** Also `Cc1cccc(-c2n[nH]cc2/C=C(\C#N)C(=O)O)c1` ?
**A:** 6.26

**Q:** Also `N#C/C(=C\c1c[nH]nc1-c1ccccc1C(F)(F)F)C(=O)O` ?
**A:** 6.59

**Q:** Also `N#C/C(=C\c1cn(Cc2ccccc2)nc1-c1ccc(Cl)c(Cl)c1)C(=O)O` ?
**A:** 6.14

**Q:** Also `N#C/C(=C\c1c[nH]nc1-c1cc(Cl)ccc1Cl)C(=O)O` ?
**A:** 6.30

**Q:** Also `N#C/C(=C\c1c[nH]nc1-c1ccc(F)cc1)C(=O)O` ?
**A:** 6.19

**Q:** Also `CC(C)(C)OC(=O)/C(C#N)=C/c1c[nH]nc1-c1ccc(Cl)c(Cl)c1` ?
**A:** 5.06

**Q:** Also `CCOC(=O)/C(C#N)=C/c1c[nH]nc1-c1ccc(Cl)c(Cl)c1` ?
**A:** 5.41
